Assay: NCI Yeast Anticancer Drug Screen. Data for the cln2 rad14 strain (AID 165);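 note: 0% = growth equal to vehicle treated cultures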
Settings: S. cerevisiae cln2 rad14 strain, at 50.0 µM, stronger effect = higher value
Description: Growth inhibition of yeast strains with defined genetic alterations is measured as a screen for potential anti-cancer activity. Selected strains with alterations in DNA damage repair or cell cycle control were exposed to compounds and growth inhibition was measured relative to vehicle treated controls. The strain used in this assay is cln2 rad14
The panel holds about 79,000 compounds, 15% with a hit somewhere; the sample as a whole holds those more often. Active and inactive are the calls of the source. Cut-off read from the data, not from the text of the source: active = growth inhibition above about 70%; inactive = the rest.
outcome measure: growth inhibition

{"columns": ["compound", "growth inhibition"],
 "data": [
  ["CCOC(=O)C1CN2C(=O)CCC2C1=O (centres undefined)", "-5.85% (inactive)"],
  ["O=c1ccsc(=S)[nH]1", "0.25% (inactive)"],
  ["CCOC(=O)C(C)c1nc2ccc(C(F)(F)F)cc2[nH]c1=O (centres undefined)", "14.2% (inactive)"]
]}

Now look at this entry.
Request: Determine its reported growth inhibition: COC(=O)C(OC)(OC)C(O)c1ccccc1 (centres undefined)
Response: 4.95% (inactive)

* * *

Test: NCI Yeast Anticancer Drug Screen. Data for the rad50 strain (AID 155);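 note: 0% = growth of vehicle-only cultures of the same strain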
Details: S. cerevisiae rad50 strain growth inhibition; at 50.0 µM; stronger effect = higher value
Compounds without any hit were thinned out: in the full panel of roughly 79,000, 15% have a hit.
# growth inhibition per entry
Numbers only here, please. The scale is %.

{"columns": ["compound", "growth inhibition [%]"],
 "data": [
  ["Cc1cc2[nH]c(=O)c(=O)[nH]c2cc1C", 0.35],
  ["C=CCC1=C2CCCCC2CCC1=O (configuration not stated)", -5.7],
  ["CC(C)CSCC1OC(n2cnc3c(N)nccc32)C(O)C1O (configuration not stated)", -6.15],
  ["CC(=O)C(C)C(C)=O", -2.95],
  ["CCOC(=O)c1cc(OC(C)=O)c2ccccc2c1", 26.9],
  ["COc1ccc(C(=CC2=CC(=O)C3=C(CCCC3)C2=O)c2ccc(OC)cc2)cc1", 19.8],
  ["Cc1ccc(S(=O)(=O)/C(C#N)=C\\N2CCNC2=S)cc1", -11.7],
  ["C#CCC(C)(C)C(N)=O", -10.7]
]}

Request: Determine its reported growth inhibition: CN(N=O)c1c([N+](=O)[O-])cc2c(c1[N+](=O)[O-])Cc1ccccc1-2
Response: 0.4

Request: Determine its reported growth inhibition: O=C(NCC(C(=O)OCc1ccccc1)C(=O)OCc1ccccc1)OCc1ccccc1
Response: -8.9

Request: Determine its reported growth inhibition: O=C(CCC(=O)NO)NO
Response: 1.4

* * *

# growth inhibition per entry
Assay: NCI Yeast Anticancer Drug Screen. Data for the rad50 strain (AID 155);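 note: 0% = growth of vehicle-only cultures of the same strain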
Details: S. cerevisiae rad50 strain growth inhibition; at 50.0 µM; stronger effect = higher value
This is part of a sample that, as a whole, favours compounds with a hit. Of some 79,000 tested, about 15% had one in any assay.
Numbers only here, please. The scale is %.

These recorded examples may help you get a feel for the data.
{"columns": ["compound", "growth inhibition (%)"],
 "data": [
  ["NNc1nc(N2CCOCC2)c2[nH]cnc2n1", -1.3],
  ["COC1=C(NCC(C)C)C(=O)C(OC)=C(NCC(C)C)C1=O", -3.05],
  ["CCCCCCCCCCCCCCCCN (tested in a mixture with another compound)", 29.9]
]}

Request: Determine its reported growth inhibition: CCCCOC(=O)C1CC2CC1C1OC21 (stereo unspecified)
Response: -67.6

Request: Determine its reported growth inhibition: CC(=O)/C(=C\c1ccc([N+](=O)[O-])cc1)C(=O)CCN(C)C
Response: 5.25

Request: Determine its reported growth inhibition: O=C(O)c1ccc2c(c1C(=O)O)C(=O)OC2(c1ccc(O)cc1)c1ccc(O)cc1
Response: -14.8

Request: Determine its reported growth inhibition: N#Cc1ccc(OCc2nc(N)nc(N)c2-c2ccc(Cl)cc2)cc1
Response: -4.4
